biological target: Cytochrome P450 1A2 (Homo sapiens) (UniProt P05177); test: p450-cyp1a2 (AID 410); settings: recombinant CYP1A2, luciferin-ME demethylation, luminescence; series mostly up to 11.4 µM; further: potency means the concentration at half of the fitted maximal effect
Sequence (P05177 whole entry, looked up): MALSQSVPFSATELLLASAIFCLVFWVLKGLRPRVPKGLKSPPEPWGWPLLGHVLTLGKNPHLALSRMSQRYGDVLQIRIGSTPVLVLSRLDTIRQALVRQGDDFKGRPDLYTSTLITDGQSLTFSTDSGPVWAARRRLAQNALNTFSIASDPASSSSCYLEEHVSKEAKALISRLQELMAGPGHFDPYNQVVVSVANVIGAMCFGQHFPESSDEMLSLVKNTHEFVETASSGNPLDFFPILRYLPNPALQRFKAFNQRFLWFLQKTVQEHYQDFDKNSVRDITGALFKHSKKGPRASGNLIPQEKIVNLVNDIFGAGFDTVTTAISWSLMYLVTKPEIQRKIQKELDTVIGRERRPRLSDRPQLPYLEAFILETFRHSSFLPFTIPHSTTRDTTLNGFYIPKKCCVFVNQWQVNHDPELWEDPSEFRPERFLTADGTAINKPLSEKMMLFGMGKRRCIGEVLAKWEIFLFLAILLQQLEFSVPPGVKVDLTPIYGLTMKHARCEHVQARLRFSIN
Inconclusive results are not listed. Calls of active or inactive are those of the source. The call rests on the fitted dose curve.
Outcome Measure: Potency

[
  {
    "Structure Smiles": "N[C@@H](CC1=CS(=O)(=O)c2ccc(Cl)cc21)C(=O)O",
    "Study Target": "Cytochrome P450 1A2 (Homo sapiens) (UniProt P05177)",
    "Outcome Measure": "Potency",
    "Endpoint Result": "398 nM (active)"
  },
  {
    "Structure Smiles": "Nc1nc(N)c2nc(CNc3ccc(C(=O)N[C@H](CCC(=O)O)C(=O)O)cc3)cnc2n1",
    "Study Target": "Cytochrome P450 1A2 (Homo sapiens) (UniProt P05177)",
    "Outcome Measure": "Potency",
    "Endpoint Result": "inactive"
  },
  {
    "Structure Smiles": "CN(N=O)c1ccc(/C=C\\c2ccnc3ccccc23)cc1",
    "Study Target": "Cytochrome P450 1A2 (Homo sapiens) (UniProt P05177)",
    "Outcome Measure": "Potency",
    "Endpoint Result": "158 nM (active)"
  },
  {
    "Structure Smiles": "c1ccc2cc(-c3cc(-c4cc(-c5ccc6ccccc6c5)on4)no3)ccc2c1",
    "Study Target": "Cytochrome P450 1A2 (Homo sapiens) (UniProt P05177)",
    "Outcome Measure": "Potency",
    "Endpoint Result": "1580 nM (active)"
  },
  {
    "Structure Smiles": "OC[C@@H]1O[C@@H](n2cnc3c(NC4CCCCC4)ncnc32)[C@@H](O)[C@H]1O",
    "Study Target": "Cytochrome P450 1A2 (Homo sapiens) (UniProt P05177)",
    "Outcome Measure": "Potency",
    "Endpoint Result": "inactive"
  },
  {
    "Structure Smiles": "CCCCn1cnc2c(SC)ncnc21",
    "Study Target": "Cytochrome P450 1A2 (Homo sapiens) (UniProt P05177)",
    "Outcome Measure": "Potency",
    "Endpoint Result": "3160 nM (active)"
  },
  {
    "Structure Smiles": "Cc1c(C(=O)O)nc(/C=C\\C(=O)O)[nH]c1=O",
    "Study Target": "Cytochrome P450 1A2 (Homo sapiens) (UniProt P05177)",
    "Outcome Measure": "Potency",
    "Endpoint Result": "inactive"
  },
  {
    "Structure Smiles": "Sc1ccc2ccccc2c1CNCc1ccccc1",
    "Study Target": "Cytochrome P450 1A2 (Homo sapiens) (UniProt P05177)",
    "Outcome Measure": "Potency",
    "Endpoint Result": "1260 nM (active)"
  }
]

What value of measured Potency is listed for "C[N+]1(NCC[N@@+]2(C)CCc3ccccc3C2)CCCCC1" ?
inactive

Now the same for "Nc1nc(SC/C=C\c2ccccc2)c2[nH]cnc2n1"
5010 nM (active)

Now the same for "CN(C)c1ccc(-c2nc(N3CCNCC3)c3ccccc3n2)cc1"
10000 nM (active)

Now the same for "C[C@H](CCC(=O)O)[C@H]1CC[C@]2(C)[C@@H]3C(=O)C[C@H]4C(C)(C)[C@@H](O)CC[C@]4(C)[C@H]3C(=O)C[C@@]12C"
inactive

Now the same for "Cc1[nH]c2ccccc2c1-c1cc(-c2cc(-c3c(C)[nH]c4ccccc34)nc(N)n2)nc(N)n1"
398 nM (active)

Now the same for "N/N=C1/c2ccccc2N[C@H]1OC(=O)Nc1cccc(Cl)c1"
794 nM (active)
